Entry source: patent US20120277142A1

Molecular target: T1, TNF-α (UniProt P01375 77-233, limits assumed)
T1 construct: also called tumor necrosis factor; ligand
T1 sequence (P01375 77-233 limits assumed): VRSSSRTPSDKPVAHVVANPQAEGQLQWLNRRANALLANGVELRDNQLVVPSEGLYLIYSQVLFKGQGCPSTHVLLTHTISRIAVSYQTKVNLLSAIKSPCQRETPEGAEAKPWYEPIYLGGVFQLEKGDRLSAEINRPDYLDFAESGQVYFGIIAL
Assay: competition ELISA: sample vs plate-bound TNFRI190 for TNF-α, from IC50, relative to wild-type TNFRI126
Experimental: Each well was washed three times with 300 μL of washing buffer (0.05% Tween-20, PBS, pH 7.4) and incubated at room temperature for 2 hours with 300 μL of a blocking buffer (5% skim milk, PBS, pH 7.4). Then, each well was washed as mentioned above. […] Affinity of Met-TNFRI and Met-TNFRI mutants for TNF-α was determined by measuring an absorbance change with concentration and evaluating IC₅₀ value by measuring an absorbance change with concentration.
Metric Name: Affinity (%)

{"Binder": "TNFRI126-A24 (receptor, Met-TNFRI126 mutant made in E. coli) MDSVCPQGKYIHPQNNSICCTKCHKGTYLYNDCPGPGQDTDCRECESGSFTAIPNFLIACLSCSKCRKEMGQVEISSCTVDRDTVCGCRKNQYRHYWSENLFQCFNCSLCLNGTVHLSCQEKQNTVC", "Uom": "%", "Affinity (%)": 1060}

1 = TNFRI126-A21 (receptor, Met-TNFRI126 mutant made in E. coli) MDSVCPQGKYIHPQNNSICCTKCHKGTYLYNDCPGPGQDTDCRECESGSFTAIENFLPGCLSCSKCRKEMGQVEISSCTVDRDTVCGCRKNQYRHYWSENLFQCFNCSLCLNGTVHLSCQEKQNTVC
2 = TNFRI126-A9 (receptor, Met-TNFRI126 mutant made in E. coli) MDSVCPQGKYIHPQNNSICCTKCHKGTYLYNDCPGPGQDTDCRECESGSFTAMENFLPACLSCSKCRKEMGQVEISSCTVDRDTVCGCRKNQYRHYWSENLFQCFNCSLCLNGTVHLSCQEKQNTVC
In the pair 1 and 2 , the larger recorded Affinity (%) belongs to which? # answer = label of selected item
1
